Where do the numbers come from? From ChEMBL document CHEMBL1131872.

Target: Plasminogen (Homo sapiens, UniProt P00747)
Sequence (P00747 97-580 limits assumed): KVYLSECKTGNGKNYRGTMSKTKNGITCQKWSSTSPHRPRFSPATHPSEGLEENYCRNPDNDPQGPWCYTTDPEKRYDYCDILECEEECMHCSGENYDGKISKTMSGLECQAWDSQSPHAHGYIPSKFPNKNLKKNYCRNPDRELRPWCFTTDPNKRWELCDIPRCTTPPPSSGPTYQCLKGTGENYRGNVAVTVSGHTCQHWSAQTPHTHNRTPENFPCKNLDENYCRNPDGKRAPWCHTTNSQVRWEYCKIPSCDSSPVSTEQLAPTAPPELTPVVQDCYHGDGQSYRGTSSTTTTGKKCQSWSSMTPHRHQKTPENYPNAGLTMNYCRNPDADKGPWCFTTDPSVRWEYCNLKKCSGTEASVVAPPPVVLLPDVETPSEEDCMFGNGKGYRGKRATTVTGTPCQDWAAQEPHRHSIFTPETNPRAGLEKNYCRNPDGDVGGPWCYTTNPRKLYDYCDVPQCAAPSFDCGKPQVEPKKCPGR
Sequence (P00747 581-810 limits assumed): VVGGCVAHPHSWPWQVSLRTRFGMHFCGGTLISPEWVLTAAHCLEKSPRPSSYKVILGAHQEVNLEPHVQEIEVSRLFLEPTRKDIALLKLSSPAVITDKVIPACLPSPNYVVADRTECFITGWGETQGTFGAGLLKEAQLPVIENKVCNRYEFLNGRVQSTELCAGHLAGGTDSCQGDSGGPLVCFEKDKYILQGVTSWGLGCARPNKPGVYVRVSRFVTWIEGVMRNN
Assay: Compound was tested for inhibition of plasmin
READOUT: pKi
Answers are plain numbers, as −log10 of the molar value.

The observed pKi for CCOC(=O)N1CCN(C(=O)[C@H](Cc2cccc(C(=N)N)c2)NS(=O)(=O)c2c(C(C)C)cc(C(C)C)cc2C(C)C)CC1 when tested with Plasminogen (Homo sapiens, UniProt P00747) stands at 6.41

====

Target: Serine protease 1 (Bos taurus)
Sequence (P00760 whole entry): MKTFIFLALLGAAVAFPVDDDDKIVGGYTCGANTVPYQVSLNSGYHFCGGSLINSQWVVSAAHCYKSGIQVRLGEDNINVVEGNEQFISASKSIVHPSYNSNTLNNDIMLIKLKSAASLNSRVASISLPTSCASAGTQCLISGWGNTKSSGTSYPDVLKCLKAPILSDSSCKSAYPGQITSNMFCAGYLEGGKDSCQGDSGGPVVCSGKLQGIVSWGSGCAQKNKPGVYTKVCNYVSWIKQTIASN
Assay: Tested for inhibition of trypsin
READOUT: log10 Ki (log10 of the value in nM)
Values below are the log10 of the recorded Ki, with nM as the unit.

Below, 3 molecules whose answers are already recorded.
MOLECULE | log10 Ki
CC(C)c1cc(C(C)C)c(S(=O)(=O)NC(Cc2cccc(C(=N)N)c2)C(=O)N2CCCCCCC2)c(C(C)C)c1 (configuration not stated) | 2.92
CC(C)c1cc(C(C)C)c(S(=O)(=O)NC(Cc2cccc(C(=N)N)c2)C(=O)N2CCN(C)CC2)c(C(C)C)c1 (configuration not stated) | 3.48
CC(C)c1cc(C(C)C)c(S(=O)(=O)NC(Cc2cccc(C(=N)N)c2)C(=O)N2CCCCC2C(=O)O)c(C(C)C)c1 (configuration not stated) | 2.70

Parameters: items (list). Returns: log10 Ki for each item.
1. CC(C)c1cc(C(C)C)c(S(=O)(=O)NC(Cc2cccc(C(=N)N)c2)C(=O)N2CCCCCC2)c(C(C)C)c1 (configuration not stated)
2. CC(C)c1cc(C(C)C)c(S(=O)(=O)NC(Cc2cccc(C(=N)N)c2)C(=O)N2CCCCC2)c(C(C)C)c1 (configuration not stated)
3. CNC(=O)C1CCN(C(=O)C(Cc2cccc(C(=N)N)c2)NS(=O)(=O)c2c(C(C)C)cc(C(C)C)cc2C(C)C)CC1 (configuration not stated)
4. CCOC(=O)N1CCN(C(=O)C(Cc2cccc(C(=N)N)c2)NS(=O)(=O)c2c(C(C)C)cc(C(C)C)cc2C(C)C)CC1 (configuration not stated)

2.98
3.11
2.56
2.08

====

Biological target: Urokinase-type plasminogen activator (Homo sapiens, UniProt P00749)
Test: Tested for inhibition of plasminogen activator urokinase (microPa)
Answer each item with its documented pKi.
One number for each entry, as −log10 of the molar value.

COMPOUND | pKi
CC(C)c1cc(C(C)C)c(S(=O)(=O)NC(Cc2cccc(C(=N)N)c2)C(=O)N2CCNCC2)c(C(C)C)c1 (centres undefined) | 4.92
N=C(N)c1cccc(CC(NS(=O)(=O)c2ccc3ccccc3c2)C(=O)N2CCOCC2)c1 (centres undefined) | 4.24
CNC(=O)C1CCCN(C(=O)C(Cc2cccc(C(=N)N)c2)NS(=O)(=O)c2c(C(C)C)cc(C(C)C)cc2C(C)C)C1 (centres undefined) | 4.92

We next turn to a different compound, shown below.
Kindly note the recorded pKi for CC(C)c1cc(C(C)C)c(S(=O)(=O)NC(Cc2cccc(C(=N)N)c2)C(=O)N2CCCCC2C(=O)O)c(C(C)C)c1 (centres undefined) , which is 5.89

====

Target: Urokinase-type plasminogen activator (Homo sapiens)
Assay: Compound was tested for inhibition of plasminogen activator urokinase (microPa).
READOUT: Ki (µM)
One number for each entry, in µM.

Kindly note the recorded Ki for N=C(N)c1cccc(CC(NS(=O)(=O)c2ccc3ccccc3c2)C(=O)N2CCCC2)c1 (stereo unspecified) , which is 73

====

Target: Serine protease 1 (Bos taurus, UniProt P00760)
Assay: Tested for inhibition of trypsin
READOUT: Ki (nM)
Answers are plain numbers, in nM.

Below, 3 compounds whose answers are already recorded.
COMPOUND | QUANTITY UNIT | ASSAY VALUE
CC(C)c1cc(C(C)C)c(S(=O)(=O)NC(Cc2cccc(C(=N)N)c2)C(=O)N2CCCC2)c(C(C)C)c1 (centres undefined) | nM | 3900
COC(=O)C1CCCCN1C(=O)C(Cc1cccc(C(=N)N)c1)NS(=O)(=O)c1c(C(C)C)cc(C(C)C)cc1C(C)C (centres undefined) | nM | 1400
CC(C)c1cc(C(C)C)c(S(=O)(=O)NC(Cc2cccc(C(=N)N)c2)C(=O)N2CCOCC2)c(C(C)C)c1 (centres undefined) | nM | 490

Kindly note the recorded Ki for CC(C)c1cc(C(C)C)c(S(=O)(=O)NC(Cc2cccc(C(=N)N)c2)C(=O)N2CCNCC2)c(C(C)C)c1 (centres undefined) , which is 980

====

Target: Plasma kallikrein (Homo sapiens)
Sequence (P03952 20-390 limits assumed): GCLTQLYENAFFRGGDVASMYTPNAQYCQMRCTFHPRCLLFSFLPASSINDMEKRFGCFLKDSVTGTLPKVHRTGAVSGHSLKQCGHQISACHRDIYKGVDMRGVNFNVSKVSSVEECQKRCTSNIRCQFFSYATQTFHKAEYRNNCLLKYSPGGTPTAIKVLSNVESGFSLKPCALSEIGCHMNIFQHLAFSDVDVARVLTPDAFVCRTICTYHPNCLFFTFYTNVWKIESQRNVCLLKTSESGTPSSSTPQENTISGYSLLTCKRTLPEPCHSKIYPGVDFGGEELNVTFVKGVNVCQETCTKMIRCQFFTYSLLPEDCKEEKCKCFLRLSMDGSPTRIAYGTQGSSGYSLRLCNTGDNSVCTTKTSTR
Sequence (P03952 391-638 limits assumed): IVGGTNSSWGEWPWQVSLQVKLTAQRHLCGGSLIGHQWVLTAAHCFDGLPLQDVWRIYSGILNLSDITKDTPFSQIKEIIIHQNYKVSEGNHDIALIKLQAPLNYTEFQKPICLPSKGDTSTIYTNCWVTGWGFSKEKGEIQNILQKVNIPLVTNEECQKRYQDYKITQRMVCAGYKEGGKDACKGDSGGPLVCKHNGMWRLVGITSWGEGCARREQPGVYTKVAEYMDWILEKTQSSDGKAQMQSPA
Test: Compound was tested for inhibition of plasma kallikrein
READOUT: pKi
Numbers only, as −log10 of the molar value.

Kindly note the recorded pKi for CCOC(=O)N1CCN(C(=O)[C@H](Cc2cccc(C(=N)N)c2)NS(=O)(=O)c2c(C(C)C)cc(C(C)C)cc2C(C)C)CC1 , which is 5.14

====

Answer each item with its documented Ki.
Molecular target: Urokinase-type plasminogen activator (Homo sapiens)
Test: Tested for inhibition of plasminogen activator urokinase (microPa)
One number for each entry, in µM.

COMPOUND | SYSTEM NAME | Ki [µM]
COC(=O)C1CCN(C(=O)C(Cc2cccc(C(=N)N)c2)NS(=O)(=O)c2c(C(C)C)cc(C(C)C)cc2C(C)C)CC1 (stereo not drawn) | Urokinase-type plasminogen activator (Homo sapiens) | 1.3
N=C(N)c1cccc(CC(NS(=O)(=O)c2ccc3ccccc3c2)C(=O)N2CCCCCCC2)c1 (stereo not drawn) | Urokinase-type plasminogen activator (Homo sapiens) | 19
CC(C)c1cc(C(C)C)c(S(=O)(=O)NC(Cc2cccc(C(=N)N)c2)C(=O)N2CCN(S(C)(=O)=O)CC2)c(C(C)C)c1 (stereo not drawn) | Urokinase-type plasminogen activator (Homo sapiens) | 19

Parameters: items (list). Returns: Ki for each item.
1. N=C(N)c1cccc(CC(NS(=O)(=O)c2ccc3ccccc3c2)C(=O)N2CCCCCC2)c1 (stereo not drawn)
2. CC(C)c1cc(C(C)C)c(S(=O)(=O)NC(Cc2cccc(C(=N)N)c2)C(=O)N2CCCCCCC2)c(C(C)C)c1 (stereo not drawn)

1. 28
2. 7.8

Parameters: items (list). Returns: Ki for each item.
1. CC(C)c1cc(C(C)C)c(S(=O)(=O)NC(Cc2cccc(C(=N)N)c2)C(=O)N2CCCC2)c(C(C)C)c1 (stereo not drawn)
2. CC(C)c1cc(C(C)C)c(S(=O)(=O)NC(Cc2cccc(C(=N)N)c2)C(=O)N2CCCCC2)c(C(C)C)c1 (stereo not drawn)
3. COC(=O)C1CCCN(C(=O)C(Cc2cccc(C(=N)N)c2)NS(=O)(=O)c2c(C(C)C)cc(C(C)C)cc2C(C)C)C1 (stereo not drawn)

1: 19; 2: 5.1; 3: 2.5

====

Answer each item with its documented pKi.
Target: Plasminogen (Homo sapiens, UniProt P00747)
Experiment: Tested for inhibition of plasmin
Answers are plain numbers, as −log10 of the molar value.

Below, 5 molecules whose answers are already recorded.
MOLECULE | pKi
CC(C)c1cc(C(C)C)c(S(=O)(=O)NC(Cc2cccc(C(=N)N)c2)C(=O)N2CCCCC2C(=O)O)c(C(C)C)c1 (stereo not drawn) | 5.82
N=C(N)c1cccc(CC(NS(=O)(=O)c2ccc3ccccc3c2)C(=O)N2CCCCCC2)c1 (stereo not drawn) | 5.18
CCOC(=O)N1CCN(C(=O)C(Cc2cccc(C(=N)N)c2)NS(=O)(=O)c2c(C(C)C)cc(C(C)C)cc2C(C)C)CC1 (stereo not drawn) | 5.92
COC(=O)N1CCN(C(=O)C(Cc2cccc(C(=N)N)c2)NS(=O)(=O)c2c(C(C)C)cc(C(C)C)cc2C(C)C)CC1 (stereo not drawn) | 5.74
COC(=O)C1CCN(C(=O)C(Cc2cccc(C(=N)N)c2)NS(=O)(=O)c2c(C(C)C)cc(C(C)C)cc2C(C)C)CC1 (stereo not drawn) | 5.85

Parameters: items (list). Returns: pKi for each item.
1. CC1CCN(C(=O)C(Cc2cccc(C(=N)N)c2)NS(=O)(=O)c2c(C(C)C)cc(C(C)C)cc2C(C)C)CC1 (stereo not drawn)
2. COC(=O)C1CCCCN1C(=O)C(Cc1cccc(C(=N)N)c1)NS(=O)(=O)c1c(C(C)C)cc(C(C)C)cc1C(C)C (stereo not drawn)
3. N=C(N)c1cccc(CC(NS(=O)(=O)c2ccc3ccccc3c2)C(=O)N2CCOCC2)c1 (stereo not drawn)
4. COC(=O)C1CCCN(C(=O)C(Cc2cccc(C(=N)N)c2)NS(=O)(=O)c2c(C(C)C)cc(C(C)C)cc2C(C)C)C1 (stereo not drawn)
5. CC(C)c1cc(C(C)C)c(S(=O)(=O)NC(Cc2cccc(C(=N)N)c2)C(=O)N2CCN(S(C)(=O)=O)CC2)c(C(C)C)c1 (stereo not drawn)

1: 5.40; 2: 6.00; 3: 5.11; 4: 6.00; 5: 5.10

Parameters: items (list). Returns: pKi for each item.
1. N=C(N)c1cccc(CC(NS(=O)(=O)c2ccc3ccccc3c2)C(=O)N2CCCC2)c1 (stereo not drawn)
2. CC(C)c1cc(C(C)C)c(S(=O)(=O)NC(Cc2cccc(C(=N)N)c2)C(=O)N2CCC(C(=O)O)CC2)c(C(C)C)c1 (stereo not drawn)
3. CC(C)c1cc(C(C)C)c(S(=O)(=O)NC(Cc2cccc(C(=N)N)c2)C(=O)N2CCOCC2)c(C(C)C)c1 (stereo not drawn)
4. CC(C)c1cc(C(C)C)c(S(=O)(=O)NC(Cc2cccc(C(=N)N)c2)C(=O)N2CCCCCCC2)c(C(C)C)c1 (stereo not drawn)
5. N=C(N)c1cccc(CC(NS(=O)(=O)c2ccc3ccccc3c2)C(=O)N2CCCCCCC2)c1 (stereo not drawn)
6. CC(C)c1cc(C(C)C)c(S(=O)(=O)NC(Cc2cccc(C(=N)N)c2)C(=O)N2CCCCCC2)c(C(C)C)c1 (stereo not drawn)

1. 4.92
2. 4.92
3. 5.35
4. 5.49
5. 5.11
6. 5.55

Parameters: items (list). Returns: pKi for each item.
1. CC(C)c1cc(C(C)C)c(S(=O)(=O)NC(Cc2cccc(C(=N)N)c2)C(=O)N2CCCC(C(=O)O)C2)c(C(C)C)c1 (stereo not drawn)
2. CC(C)c1cc(C(C)C)c(S(=O)(=O)NC(Cc2cccc(C(=N)N)c2)C(=O)N2CCCC2)c(C(C)C)c1 (stereo not drawn)
3. CNC(=O)C1CCN(C(=O)C(Cc2cccc(C(=N)N)c2)NS(=O)(=O)c2c(C(C)C)cc(C(C)C)cc2C(C)C)CC1 (stereo not drawn)
4. CC(C)c1cc(C(C)C)c(S(=O)(=O)NC(Cc2cccc(C(=N)N)c2)C(=O)N2CCNCC2)c(C(C)C)c1 (stereo not drawn)

1. 5.09
2. 5.02
3. 5.60
4. 5.15

Parameters: items (list). Returns: pKi for each item.
1. CC(C)c1cc(C(C)C)c(S(=O)(=O)NC(Cc2cccc(C(=N)N)c2)C(=O)N2CCN(C)CC2)c(C(C)C)c1 (stereo not drawn)
2. CNC(=O)C1CCCN(C(=O)C(Cc2cccc(C(=N)N)c2)NS(=O)(=O)c2c(C(C)C)cc(C(C)C)cc2C(C)C)C1 (stereo not drawn)
3. CC(C)c1cc(C(C)C)c(S(=O)(=O)NC(Cc2cccc(C(=N)N)c2)C(=O)N2CCCCC2)c(C(C)C)c1 (stereo not drawn)

1. 4.68
2. 6.40
3. 5.59
